- Assay info: log P by HPLC on reversed-phase column (C18), EEC directive 79/831 Annex V.A8
- Assay type: physicochemical
- Setup conditions: Table A; HPLC reversed-phase C18, 43° C.; data refer to the E isomer
Assignment: determine reported log p for the given compounds.
One number for each entry.

// each compound listed below needs its log p
1. CON=Cc1cc(C)c(NC(=O)c2cc(C(F)F)nn2-c2ncccc2Cl)c(C(=O)NN(C)C(=O)OC)c1 (mixture of isomers) [A-41]
2. CCOC(=O)NN(C)C(=O)c1cc(C=NOC)cc(C)c1NC(=O)c1cc(C(F)(F)F)nn1-c1ncccc1Cl
3. COCCOC(=O)NN(C)C(=O)c1cc(C=NOC)cc(C)c1NC(=O)c1cc(C(F)(F)F)nn1-c1ncccc1Cl
4. CON=Cc1cc(C)c(NC(=O)c2cc(Br)nn2-c2ncccc2Cl)c(C(=O)N(NC(C)=O)C(C)=O)c1

[2.46, 3.31, 3.05, 2.67]
